This collection of values is drawn from patent US20120189639A1.

# measurementTarget: T1, human GITR on naïve CD4+ T cells (human, UniProt Q9Y5U5 26-241)
# T1 sequence: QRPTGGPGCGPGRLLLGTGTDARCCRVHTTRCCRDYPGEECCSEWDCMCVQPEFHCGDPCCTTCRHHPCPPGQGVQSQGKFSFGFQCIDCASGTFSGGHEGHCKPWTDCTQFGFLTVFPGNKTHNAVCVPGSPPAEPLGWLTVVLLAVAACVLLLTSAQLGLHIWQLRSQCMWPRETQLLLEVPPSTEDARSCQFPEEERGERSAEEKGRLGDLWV
# testMethodNotes: cell-based or functional assay
experimentalEndpoint: proliferation of naïve CD4+ T cells, mean, at 12.6 ng/mL Ab
Answer with a number only.

>  <binder>
9E5 (antibody, V domains shown, Parental rodent anti-human GITR monoclonal antibody from a hybridoma; kappa VL; also called 9E5.C1) VH: QVTLKESGPGILQPSQTLSLTCTFSGFSLSTYGVGVGWIRQPSGKGLEWLANIWWDDDNYYNPSLIHRLTVSKDTSNNQAFLKITNVDTAETATYYCAQIKEPRDWFFEFWGPGTMVSVSS VL: DIQMTQTPSSMPASLGERVTIFCRASQGVNNFLTWYQQKPDGTIKPLIFYTSNLQSGVPSRFSGSGSGTDYSLSISSLEPEDFAMYYCQQYHGFPNTFGAGTKLELKR

>  <valueMeasured>
85700

$$$$
>  <binder>
17F10 (antibody, V domains shown, Parental rodent anti-human GITR monoclonal antibody from a hybridoma; kappa VL; also called 17F10.B1) VH: EVKLVESGGGFVKPGGSLKLSCAASGFTVRNYAMSWVRQTPEKRLEWVASISTGDRSYLPDSMKGRFTISRDNARNILYLQMSSLRSEDTAIYYCQRYFDFDSFAFWGQGTLVTVSA VL: DIQMTQTPSSLSASLGDRVTISCRASQDINNFLNWYQQKPDGSLKLLIYYTSKLHSGVPSRFSGSGSGTDFSLTISNLDQEDVATYFCQQGHTLPPTFGGGTKLEVKR

>  <valueMeasured>
90200

$$$$

# proliferation of naïve CD4+ T cells, mean, at 12.6 ng/mL Ab lookup, item 49A1 (antibody, V domains shown, Parental rodent anti-human GITR monoclonal antibody from a hybridoma; kappa VL; also called 49A1.B1) VH: EVQLQESGPSLVKPSQTLSLTCSVTGDSITSGYWNWIRKFPGNKFEYMGFISYSGNTYYNPSLRSRISITRDTSKNQYFLHLNSVTTEDTATYYCSRRHLISGYGWFAYWGQGTLVTVSA VL: VIVMTQSHKFMSTSIGDRVNITCKASQDVISAVAWYQQKPGQSPKLLIYWASTRHTGVPDRFTGSGSGTDFTLTINSVQAEDRALYYCQQHSYTPPWTFGGGTNLEIKR
86000
